- Test system: Bmi-1
- measurement.description: Sandwich ELISA Assay (Bmi-1 ELISA) in HT-1080 cells
- Format: cell-based
Can you tell me EC50 for the items I'm about to list?

In the examples that follow, each entry is paired with its recorded EC50.
given.smiles: Cc1nc2ccc(F)cc2n1-c1nc(N)cc(Nc2ccc(C(F)(F)F)cc2)n1
reported.measurement: 10 to 100 nM
--
given.smiles: Cc1nc2c(F)cc(F)cc2n1-c1nc(N)c(F)c(Nc2ccc(OC(F)(F)F)cc2)n1
reported.measurement: 100 to 3000 nM

// below: EC50 requested for another molecule
Prompt: Record Cc1nc2ccccc2n1-c1nc(N)cc(Nc2ccc(C(F)(F)F)cc2)n1 : what is its EC50 with Bmi-1?
Completion: 10 to 100 nM

* * *

- System: Bmi-1
- measurement.description: Sandwich ELISA Assay (Bmi-1 ELISA) in HT-1080 cells
- Format: cell-based
pEC50: −log10 of the molar value.
Could you please report measured pEC50 for the items listed next?

Study these solved cases before continuing.
given.smiles: CN(C)c1ccc(Nc2ccnc(-c3c(C(F)(F)F)nc4ccccn34)n2)cn1
assayed.target: Bmi-1
pEC50: 7.00 to 8.00

given.smiles: FC(F)(F)c1nc2ccc(Cl)cn2c1-c1nccc(Nc2ccc(Br)cc2)n1
assayed.target: Bmi-1
pEC50: 7.00 to 8.00

Prompt: Record Cc1ccc(Nc2nc(-n3c(C4CC4)nc4ccccc43)nc(N)c2F)cc1 : what is its pEC50 with Bmi-1?
Completion: 8.00 to 9.00

* * *

Task for the reader: assign each of the following compounds its reported EC50.
- Test system: Bmi-1
- measurement.description: Sandwich ELISA Assay (Bmi-1 ELISA) in HT-1080 cells
- Assay type: cell-based

given.smiles: Cc1nc2ncccc2n1-c1nc(N)c(F)c(Nc2ccc(OC(F)F)cc2)n1
EC50: 10 to 100 nM

given.smiles: Cc1nc2ccccc2n1-c1nc(N)c(F)c(Nc2ccc(OC(F)(F)F)cc2)n1
EC50: 10 to 100 nM

Fill in EC50 for each of the 6 compounds listed.
1. Cc1nc2ccccc2n1-c1nc(N)cc(Nc2ccc(OC(F)F)c(F)c2)n1
2. Cc1nc2cc(F)c(F)cc2n1-c1nc(N)cc(Nc2ccc(OC(F)F)c(F)c2)n1
3. Cc1nc2ccccc2n1-c1nc(N)cc(Nc2ccc(Cl)cc2)n1
4. Fc1ccc2nc(C(F)(F)F)c(-c3nccc(Nc4ccc(C(F)(F)F)cc4)n3)n2c1
5. CCc1nc2ccccc2n1-c1nc(N)cc(Nc2ccc(OC(F)F)cc2)n1
6. Cc1ccc(Nc2ccnc(-c3c(C(F)(F)F)nc4ccccn34)n2)cc1

Completion:
10 to 100 nM
10 to 100 nM
10 to 100 nM
100 to 3000 nM
1 to 10 nM
1 to 10 nM

Value sought for every listed compound: EC50.
1. Cc1nc2c(F)cc(F)cc2n1-c1nc(N)cc(Nc2ccc(C(F)(F)F)c(F)c2)n1
2. Fc1ccc2nc(-c3ccccc3)c(-c3nccc(Nc4ccc(Br)cc4)n3)n2c1

Completion:
100 to 3000 nM
100 to 3000 nM

* * *

- System: Bmi-1
- measurement.description: Sandwich ELISA Assay (Bmi-1 ELISA) in HT-1080 cells
- Format: cell-based
pEC50: −log10 of the molar value.
quantity.kind: pEC50

Below: 8 compounds and their reported pEC50.
compound: Nc1nc(-c2c(CO)nn3ccc(F)cc23)nc(Nc2ccc(OC(F)F)cc2)c1F [Cpd 181]
assayed.target: Bmi-1
reported.measurement: 7.00 to 8.00

compound: COc1ccc(Nc2ccnc(-c3c(C(F)(F)F)nn4ccccc34)n2)cc1 [Cpd 60]
assayed.target: Bmi-1
reported.measurement: 7.00 to 8.00

compound: Cc1nc2ccc(Br)cc2n1-c1nc(N)cc(Nc2ccc(C(F)(F)F)cc2)n1 [Cpd 85]
assayed.target: Bmi-1
reported.measurement: 5.52 to 7.00

compound: CCc1nc2ncc(Cl)cc2n1-c1nc(N)cc(Nc2ccc(C(F)(F)F)cc2)n1 [Cpd 105]
assayed.target: Bmi-1
reported.measurement: 7.00 to 8.00

compound: Nc1nc(-n2c(C3CC3)nc3ncc(F)cc32)nc(Nc2ccc(OC(F)F)cc2)c1F [Cpd 155]
assayed.target: Bmi-1
reported.measurement: 7.00 to 8.00

compound: CCc1nn2ccc(F)cc2c1-c1nc(N)c(F)c(Nc2ccc(C(F)(F)F)cc2)n1 [Cpd 187]
assayed.target: Bmi-1
reported.measurement: 5.52 to 7.00

compound: Cc1nc2ccccc2n1-c1nc(N)cc(Nc2ccc(C(F)(F)F)c(F)c2)n1 [Cpd 80]
assayed.target: Bmi-1
reported.measurement: 7.00 to 8.00

compound: Cc1nc2cc(F)ccc2n1-c1nc(N)c(F)c(Nc2ccc(OC(F)F)c(F)c2)n1 [Cpd 112]
assayed.target: Bmi-1
reported.measurement: 7.00 to 8.00

Field: pEC50. Fill in for each record below.
1. Cc1nc2c(F)cccc2n1-c1nc(N)c(F)c(Nc2ccc(C(F)(F)F)cc2)n1 [Cpd 134]
2. Nc1nc(-n2c(C3CC3)nc3ccccc32)nc(Nc2ccc(C(F)(F)F)cc2)c1F [Cpd 120]
3. FC(F)(F)c1ccc(Nc2ccnc(-c3c(C(F)(F)F)nc4ccc(Br)cn34)n2)cc1 [Cpd 32]
4. Cc1cc2nc(C)n(-c3nc(N)cc(Nc4ccc(C(F)(F)F)cc4)n3)c2cc1C [Cpd 79]
5. COCc1nc2ccccc2n1-c1nc(N)cc(Nc2ccc(C(F)(F)F)cc2)n1 [Cpd 150]
6. COc1cccc(Nc2nc(-n3c(C)nc4ccccc43)nc(N)c2F)c1 [Cpd 195]

Completion:
7.00 to 8.00
7.00 to 8.00
5.52 to 7.00
5.52 to 7.00
7.00 to 8.00
5.52 to 7.00

* * *

- System: Bmi-1
- measurement.description: Sandwich ELISA Assay (Bmi-1 ELISA) in HT-1080 cells
- Assay type: cell-based
quantity.kind: EC50

Example cases with answers are listed next.
given.smiles: Cc1nc2ccc(C(F)(F)F)cn2c1-c1nccc(Nc2ccc(Br)cc2)n1
assayed.target: Bmi-1
EC50: 100 to 3000 nM
--
given.smiles: Cc1nc2ccccc2n1-c1nc(N)c(Cl)c(Nc2ccc(C(F)(F)F)cc2)n1
assayed.target: Bmi-1
EC50: 100 to 3000 nM
--
given.smiles: COCc1nc2ccccc2n1-c1nc(N)c(F)c(Nc2ccc(C(F)(F)F)cc2)n1
assayed.target: Bmi-1
EC50: 10 to 100 nM
--
given.smiles: Cc1nc2c(F)cc(F)cc2n1-c1nc(N)cc(Nc2ccc(C(F)(F)F)cc2)n1
assayed.target: Bmi-1
EC50: 10 to 100 nM
--
given.smiles: CCc1nc2ccccc2n1-c1nc(N)cc(Nc2ccc(OC(F)F)c(F)c2)n1
assayed.target: Bmi-1
EC50: 10 to 100 nM

State the recorded EC50 for every item in the following list.
1. Cc1nc2ccc(C(F)(F)F)cn2c1-c1nccc(Nc2ccc(C(F)(F)F)cc2)n1
2. COc1ccc(Nc2ccnc(-c3c(C(F)(F)F)nc4ccc(OC)cn34)n2)cc1
3. Cc1cccc(Nc2cc(N)nc(-n3c(C)nc4ccc(F)cc43)n2)c1
4. COCc1nc2ccccc2n1-c1nc(N)c(F)c(Nc2ccc(Cl)cc2)n1
5. COc1ccc(Nc2nc(-c3c(C)nn4ccccc34)nc(N)c2F)cc1
6. COc1ccc(Nc2nc(-n3c(C)nc4ccc(N)cc43)nc(N)c2F)cc1

Completion:
["100 to 3000 nM", "10 to 100 nM", "100 to 3000 nM", "100 to 3000 nM", "10 to 100 nM", "10 to 100 nM"]

* * *

- System: Bmi-1
- measurement.description: Sandwich ELISA Assay (Bmi-1 ELISA) in HT-1080 cells
- Type: cell-based
quantity.kind: EC50

These recorded examples may help you get a feel for the data.
compound: Nc1nc(-n2c(C3CC3)nc3ncc(F)cc32)nc(Nc2ccc(C(F)(F)F)cc2)c1F [Cpd 117]
quantity.kind: EC50
reported.measurement: 10 to 100 nM

compound: COc1ccc(Nc2nc(-c3c(C)nc4ccc(F)cn34)nc(N)c2F)cc1 [Cpd 252]
quantity.kind: EC50
reported.measurement: 10 to 100 nM

compound: Nc1cc(Nc2ccc(C(F)(F)F)cc2)nc(-n2c(C(F)F)nc3ccccc32)n1 [Cpd 152]
quantity.kind: EC50
reported.measurement: 10 to 100 nM

compound: COc1cccc(Nc2nc(-n3c(C)nc4ccc(F)cc43)nc(N)c2F)c1 [Cpd 189]
quantity.kind: EC50
reported.measurement: 100 to 3000 nM

compound: Cc1nc2ccccc2n1-c1nc(N)c(F)c(Nc2ccc(Cl)c(F)c2)n1 [Cpd 261]
quantity.kind: EC50
reported.measurement: 10 to 100 nM

Value sought for every listed compound: EC50.
1. Cn1c(C(F)(F)F)c(-c2nccc(Nc3ccc(Br)cc3)n2)c2cc(Cl)ccc21 [Cpd 25]
2. Cc1cn2c(-c3nc(N)c(F)c(Nc4ccc(C(F)(F)F)cc4)n3)c(C)nc2c(C)n1 [Cpd 174]
3. COCc1nc2ccccc2n1-c1nc(N)c(F)c(Nc2ccc(C)cc2)n1 [Cpd 217]
4. Cc1nc2ccccn2c1-c1nc(N)c(F)c(Nc2ccc(C(F)(F)F)cc2)n1 [Cpd 169]
5. FC(F)(F)c1ccc(Nc2ccnc(-c3c(C(F)(F)F)nn4ccccc34)n2)cc1 [Cpd 56]
6. Cc1nc2ccccc2n1-c1nc(N)c(F)c(Nc2ccc(C(F)(F)F)cc2)n1 [Cpd 95]

Completion:
1: 100 to 3000 nM; 2: 100 to 3000 nM; 3: 10 to 100 nM; 4: 100 to 3000 nM; 5: 100 to 3000 nM; 6: 10 to 100 nM

For each of the compounds below, state EC50.
1. Cc1nc2ccc(N)cc2n1-c1nc(N)c(F)c(Nc2ccc(C(F)(F)F)cc2)n1 [Cpd 284]
2. CC(C)c1nc2ccccc2n1-c1nc(N)cc(Nc2ccc(C(F)(F)F)cc2)n1 [Cpd 151]
3. COc1ccc(Nc2nc(-n3c(C4CC4)nc4ccccc43)nc(N)c2F)cc1 [Cpd 277]

Completion:
1. 10 to 100 nM
2. 10 to 100 nM
3. ≤ 1 nM

Batch lookup, EC50 per entry.
1. Cc1nc2cc(F)c(F)cc2n1-c1nc(N)cc(Nc2ccc(C(F)(F)F)cc2)n1 [Cpd 64]
2. Nc1cc(Nc2ccc(OC(F)F)cc2)nc(-n2c(C3CC3)nc3ccc(F)cc32)n1 [Cpd 143]
3. Cc1nc2ccc(Cl)cc2n1-c1nc(N)c(F)c(Nc2ccc(C(F)(F)F)cc2)n1 [Cpd 160]
4. COc1ccc(Nc2nc(-n3c(C)nc4cc(F)c(F)cc43)nc(N)c2F)cc1 [Cpd 214]
5. Cc1nc2ccccn2c1-c1nccc(Nc2ccc(C(F)(F)F)cc2)n1 [Cpd 3]
6. CCc1nc2ccccc2n1-c1nc(N)c(F)c(Nc2ccc3c(c2)OCO3)n1 [Cpd 273]
7. Cc1ccc(Nc2nc(-n3c(C)nc4ccccc43)nc(N)c2F)cc1 [Cpd 199]

Completion:
["10 to 100 nM", "1 to 10 nM", "10 to 100 nM", "10 to 100 nM", "10 to 100 nM", "1 to 10 nM", "1 to 10 nM"]

Prompt: Reported EC50, compound Cc1nc2cc(Cl)ccc2n1-c1nc(N)c(F)c(Nc2ccc(OC(F)F)cc2)n1 [Cpd 159] : ____
Completion: 100 to 3000 nM
